The measurements presented in this section are drawn from ChEMBL document CHEMBL1201862.

test system: MDA-MB-435; assay: NCI tumour cell line growth inhibition, 48 h
Active and inactive are the calls of the source. No stated cut-off is given here; in the data, active = GI50 up to about 1.1 µM and inactive = higher.
Quantity Kind: GI50

q: Identify measured GI50 corresponding to `O=c1/c(=C/c2ccc(-c3ccc(Cl)cc3Cl)o2)sc2n1[C@@H](c1ccc(Cl)cc1)C=C(c1cc(F)c(Cl)cc1Cl)N=2`
a: 54.3 µM (inactive)

q: Identify measured GI50 corresponding to Nc1nc(Br)nc2ncn(C3CC(O)C(CO)O3)c12 (stereo not given)
a: > 100 µM (inactive)

q: Identify measured GI50 corresponding to CCOCCOC(=O)C1CCC(=O)N1CN(C(C)=O)c1cc(OC)ccc1OC (stereo not given)
a: > 100 µM (inactive)

q: Identify measured GI50 corresponding to `CC(C)C(=O)NCC[C@@H](CNC(=O)OC(C)(C)C)NC(=O)OC(C)(C)C`
a: > 100 µM (inactive)

q: Identify measured GI50 corresponding to `O=C1Nc2ccc(Br)cc2/C1=N/S(=O)(=O)O`
a: 6.38 µM (inactive)

q: Identify measured GI50 corresponding to CSCCCNC(=O)[C@H](CSC)NC(=O)c1csc(CCNC(=O)[C@@H](NSc2ccccc2[N+](=O)[O-])C(C)O)n1 (stereo not given in full)
a: > 100 µM (inactive)

q: Identify measured GI50 corresponding to `CCOC(=O)c1[nH]cc(C)c1-c1c[nH]c2ccccc12`
a: 26 µM (inactive)

q: Identify measured GI50 corresponding to `Oc1ccc2c(c1)-c1c(c3ccccc3n1CCN1CCOCC1)CC2`
a: 30.9 µM (inactive)

q: Identify measured GI50 corresponding to COc1ccc(CC(COS(=O)(=O)c2ccc(C)cc2)NS(=O)(=O)c2ccc(C)cc2)cc1 (stereo not given)
a: 13.9 µM (inactive)

q: Identify measured GI50 corresponding to `O=C(CSCC(=O)N/N=C\c1ccc(-c2ccccc2)cc1)N/N=C\c1ccc(-c2ccccc2)cc1`
a: 18.8 µM (inactive)

----------
test system: XF498; experiment: NCI tumour cell line growth inhibition, 48 h
Active and inactive are the calls of the source. Rule as the data show it: active = GI50 up to about 1.1 µM and inactive = higher.
Lab note: assign the record to one of active, inactive

q: Returns: the outcome recorded for `CC1=C(C)C(=O)c2c(cc3c4ccccc4ccn23)C1=O` in this assay.
a: inactive

q: Returns: the outcome recorded for `COc1cc(OC)c2c(=O)c3cccc([N+](=O)[O-])c3n(C)c2c1` in this assay.
a: inactive

q: Returns: the outcome recorded for Cc1cccc(C(C)(C)C)c1NC(=O)CC1C(=O)Nc2ccccc2[S+]1[O-] (stereo unspecified) in this assay.
a: inactive

q: Returns: the outcome recorded for O=C1C2=C(c3ccccc31)C(c1ccccc1Cl)N1C(=O)CCSC1=N2 (stereo unspecified) in this assay.
a: inactive

q: Returns: the outcome recorded for COc1cccc2c1C(=O)c1c(O)c3c(c(O)c1C2=O)C[C@@](O)(C(=O)CO)CC3OC1CC(NCCOCC(OC(C)=O)OC(C)=O)C(O)C(C)O1 (stereo partly specified) in this assay.
a: active

q: Returns: the outcome recorded for `Cc1c2cnccc2c(C)c2c1c1ccccc1n2CCCCCCCl` in this assay.
a: inactive

q: Returns: the outcome recorded for `CCCCSC(=CC(=O)c1cccc(C(=O)C=C(SCCCC)SCCCC)n1)SCCCC` in this assay.
a: inactive

q: Returns: the outcome recorded for CC(C)(C)[Si](C)(C)OC1C(=O)C[C@H]2CCCC[C@@H]12 (stereo partly specified) in this assay.
a: inactive

q: Returns: the outcome recorded for `COc1ccc(/C(Cl)=C(\C=O)c2ccc([N+](=O)[O-])cc2)cc1` in this assay.
a: inactive

q: Returns: the outcome recorded for `CS(=O)(=O)c1nc(Cl)c(Cl)c(C#N)c1Cl` in this assay.
a: inactive

q: Returns: the outcome recorded for CCCCCC/C=C1\CCC(CN2CCOCC2)C1=O (stereo unspecified) in this assay.
a: inactive

q: Returns: the outcome recorded for `Oc1ncnc2c1nnn2CCCn1nnc2c(O)ncnc21` in this assay.
a: inactive

q: Returns: the outcome recorded for O=C(CC1Sc2ccccc2NC1=O)Nc1cccc(Cl)c1 (stereo unspecified) in this assay.
a: inactive

q: Returns: the outcome recorded for COc1cccc2c1C(=O)c1c(O)c3c(c(O)c1C2=O)C[C@@](O)(C(C)=O)C[C@@H]3OC1OC(C)C(O)C(N)C1Br (stereo partly specified) in this assay.
a: active

q: Returns: the outcome recorded for CN1c2ccccc2NC(CC(=O)O)C2CC=CN21 (stereo unspecified) in this assay.
a: inactive

q: Returns: the outcome recorded for `Nc1ccccc1/C(O)=C1/CCOC1=O` in this assay.
a: inactive

q: Returns: the outcome recorded for CC1(C)C(=O)C(O)=CC2C1=CCC1C2(C)C(=O)CC2(C)C(C(C)(O)C(=O)CC(O)C(C)(C)O)C(O)CC12C (stereo unspecified) in this assay.
a: inactive

q: Returns: the outcome recorded for CCOC(=O)C(C)N1C(=O)c2ccccc2S1(=O)=O (stereo unspecified) in this assay.
a: inactive

q: Returns: the outcome recorded for COC12C=C(C)C(CC1)CC2C(=O)O (stereo unspecified) in this assay.
a: inactive

q: Returns: the outcome recorded for CC1=C(O)C(=O)C2C(=O)C1C(C)C2c1ccc(Cl)cc1 (stereo unspecified) in this assay.
a: inactive

q: Returns: the outcome recorded for `Cc1cc2c(C)nn(Cc3ccc(Cl)cc3Cl)c2c(C#N)c1C` in this assay.
a: inactive

q: Returns: the outcome recorded for C=C1C(=O)OC2C[C@H](C)C3CC(=O)C(C)=C3CC12 (stereo partly specified) in this assay.
a: inactive

q: Returns: the outcome recorded for `O=C(CCCCCCCCCCc1ccccc1)C1=C(O)CCCC1=O` in this assay.
a: inactive

q: Returns: the outcome recorded for `CN1CCc2c1nc(-c1ccc(Cl)cc1)c1c2N(C)CC1` in this assay.
a: inactive

q: Returns: the outcome recorded for C=CCSc1ncnc2c1ncn2C1OC(CO)C(O)C1O (stereo unspecified) in this assay.
a: inactive

q: Returns: the outcome recorded for COC(=O)C1Cc2c(n(C)c3ccccc23)C(CCC(=O)O)N1Cc1ccccc1 (stereo unspecified) in this assay.
a: inactive

----------
Please respond with reported GI50 for every item in the list.
tested on: HOP-92; assay: NCI tumour cell line growth inhibition, 48 h
The source made the active and inactive calls. No stated cut-off is given here; in the data, active = GI50 up to about 1.1 µM and inactive = higher. Positions of bridges follow the written chain, without caps; N, C: chain ends. Non-standard residues stand in square brackets, D forms with d. Residues, ends and D or L forms follow the SMILES beside them. *: point of attachment. PhAc = O=C(Cc1ccccc1)*

q: Identify measured GI50 corresponding to C/C=C1/CCC2c3[nH]c4ccccc4c3CCN2C1 (stereo not given)
a: 24.2 µM (inactive)

q: Identify measured GI50 corresponding to `O=c1oc2ccccc2c(O)c1C1c2c(c3ccccc3oc2=O)Oc2c1c(=O)oc1ccccc21`
a: 35.2 µM (inactive)

q: Identify measured GI50 corresponding to Cc1ccc2c(c1)-c1c3c(nn1C)-c1ccccc1SC3O2 (stereo not given)
a: 27 µM (inactive)

q: Identify measured GI50 corresponding to CCO[C@H]1O[C@@H]2OC3(C)CCC4[C@H](C)CCC([C@H]1C)[C@]42OO3 (stereo not given in full)
a: > 100 µM (inactive)

q: Identify measured GI50 corresponding to `O=c1[nH]cc(/N=C/c2cc(Cl)cc(Cl)c2O)c(=O)[nH]1`
a: 27.4 µM (inactive)

q: Identify measured GI50 corresponding to O=C1CC(c2ccccc2)n2c(nc3ccccc32)N1 (stereo not given)
a: 17.9 µM (inactive)

q: Identify measured GI50 corresponding to `O=C1Nc2ccc(Br)cc2/C1=N/S(=O)(=O)O`
a: > 100 µM (inactive)

q: Identify measured GI50 corresponding to COC(=O)C1Cc2c(n(C)c3ccccc23)C(CCC(=O)O)N1Cc1ccccc1 (stereo not given)
a: 23.6 µM (inactive)

q: Identify measured GI50 corresponding to O=C(Cc1ccccc1)N[C@@H]1COC(=O)[C@@H]2CCCN2C(=O)[C@@H]2CCCN2C1=O (PhAc-[dS]-Pro-Pro; ester 1-C)
a: > 100 µM (inactive)

q: Identify measured GI50 corresponding to COc1ccc(NC(=O)/C(CC2=Nc3ccc([N+](=O)[O-])cc3NC2O)=N\NC(=O)C[N+](C)(C)C)c(OC)c1 (stereo not given)
a: 72.3 µM (inactive)

----------
system: NCI-H226; assay: NCI tumour cell line growth inhibition, 48 h
The source made the active and inactive calls. Rule as the data show it: active = GI50 up to about 1.1 µM and inactive = higher.
Quantity Kind: GI50

q: Determine reported GI50 for `O=C(O)CCc1nc(-c2ccccc2-n2cccc2)no1` ; test system: NCI-H226.
a: > 100 µM (inactive)

q: Determine reported GI50 for CC(C)C1OC(=O)/C=C/C=C/C=C/C=C/C=C/CC(O)CC(O)CC(O)CC(O)CC(O)CC(O)CC(O)CC(O)/C=C/C1C (stereo not given) ; test system: NCI-H226.
a: > 100 µM (inactive)

q: Determine reported GI50 for `O=C(O)/C=C\C(=O)Nc1ccc2c(c1)-c1ccccc1C2` ; test system: NCI-H226.
a: 28.9 µM (inactive)

q: Determine reported GI50 for COc1cc(C2C3C=CC=C4CC=CC(=C43)C3CCC(=O)N32)cc(OC)c1OC (stereo not given) ; test system: NCI-H226.
a: 0.224 µM (active)

q: Determine reported GI50 for `O=C(O/N=C1/CCC/C1=C\c1ccccc1)c1ccc(Cl)cc1` ; test system: NCI-H226.
a: > 95.7 µM (inactive)
